- Tested Target: Histone acetyltransferase RTT109 (Candida albicans (strain SC5314 / ATCC MYA-2876)) (UniProt Q5AAJ8)
- Sequence (Q5AAJ8 whole entry, looked up): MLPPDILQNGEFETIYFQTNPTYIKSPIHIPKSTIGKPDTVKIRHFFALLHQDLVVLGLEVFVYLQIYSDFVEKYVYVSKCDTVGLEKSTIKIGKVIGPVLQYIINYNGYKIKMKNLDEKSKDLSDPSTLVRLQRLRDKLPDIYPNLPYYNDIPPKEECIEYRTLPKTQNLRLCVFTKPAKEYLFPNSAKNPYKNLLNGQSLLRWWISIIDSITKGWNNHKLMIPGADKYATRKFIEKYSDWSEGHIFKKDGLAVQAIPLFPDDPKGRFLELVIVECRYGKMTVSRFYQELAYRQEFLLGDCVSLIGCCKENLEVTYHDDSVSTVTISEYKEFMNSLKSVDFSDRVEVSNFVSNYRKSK
- Test Method Notes: Rtt109-Vps75 histone acetyltransferase blockade – biochemical, ThioGlo CoA-SH fluorescence, plate reader, primary screen (AID 540336)
- Condition Label: purified Rtt109/Vps75, ThioGlo CoA-SH fluorescence, 4 h; at 34.9 µM
Among all 330,000 compounds or so, about 520 (0.16%) were called active.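 The calls were made as follows: active = inhibition of at least 50% in every replicate; inconclusive = best replicate reaches 50% inhibition but some replicates fall short; inactive = the rest.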 Only a selection was taken, and actives are over-represented in it overall.
Outcome codes: YES = active, NO = inactive

> print(dat)
                                   compound  classification
1  COC1C(O)C(C)OC(OC2CCC3(C=O)C(CCC4C3CCC3(C)C(C5=CC(=O)OC5)CCC43O)C2)C1O (centres undefined)              NO
2  CCC(C)(O)C(=O)OC1C(=O)OC2CC3C(C)=CC(=O)C(O)C3(C)C3C4(O)OCC23C1C(C)C4O (centres undefined)              NO
3  CC(=O)OC1C2(CC3N4C(=O)C5(CO)SSC4(CC31O)C(=O)N5C)OC(C)C(C)(C)C2=O (centres undefined)              NO
4                  CCCCCCCCCCCCn1ccc(=N)cc1             YES
